// reported growth for each item listed
# Tested on: SK-MEL-2 melanoma
# EXPERIMENT: NCI-60 one-dose screen, 48 h (100 = growth as untreated, 0 = no growth, -100 = all killed)
# SETUP CONDITIONS: 10 µM
# Description: Growth inhibition of the SK-MEL-2 human tumor cell line is measured as a screen for anti-cancer activity. Cells are grown in 96 well plates and exposed to the test compound for 48 hours. Compounds are tested at a single concentration, which is 10^-5 M for most compounds. The reported endpoint is percent growth (GI% or GIPRCNT), where numbers from 0 - 100% represent growth inhibition, and numbers from -100% - 0 represent cell death. For example, a value of 40 represents 60% growth inhibition. […]
The panel holds about 83,000 compounds, 20% with a hit somewhere; the sample as a whole holds those more often.
The answer is to be given in %; state only the numeric part.

Some compounds with recorded growth:
| COMPOUND | TARGET SYSTEM | UNITS TEXT | growth |
| --- | --- | --- | --- |
| C/C(=N\NC(N)=S)C(C)(C)O | SK-MEL-2 melanoma | % | 98.5 |
| NC(=O)C1CCCN(Cc2c[nH]c3ccccc23)C1 (stereo unspecified) | SK-MEL-2 melanoma | % | 86.5 |
| COc1cc(N=C2C(=O)N(Cc3ccccc3)c3ccccc32)cc(OC)c1OC | SK-MEL-2 melanoma | % | 98.3 |
| O=C(CCCC(=O)N/N=C/c1cc(Cl)ccc1O)N/N=C\c1cc(Cl)ccc1O | SK-MEL-2 melanoma | % | 51.7 |
| CCOc1nc(-c2ccccc2)cc2c(O)c(C(=O)NCCCO)[nH]c(=O)c12 | SK-MEL-2 melanoma | % | 92.7 |

Kindly review the next compound as well.
Can you share its growth? I mean this compound: COc1cc(-c2nc3ccc(C)cc3[nH]2)ccc1OCC(=O)N=Nc1c(O)[nH]c2ccccc12 -52.9

---

# Tested on: NCI-H522 lung
# EXPERIMENT: NCI-60 one-dose screen, 48 h (100 = growth as untreated, 0 = no growth, -100 = all killed)
# SETUP CONDITIONS: 10 µM
The panel holds about 83,000 compounds, 20% with a hit somewhere; the sample as a whole holds those more often.
Label fulfilled when growth is at or above 90%; anything below gets not fulfilled.

Solved entries (count: 2):
| COMPOUND | LABEL |
| --- | --- |
| O=C1CC(c2cccc(-c3cccnc3)c2)=Nc2ccc(Br)cc2N1 | not fulfilled |
| CCCOCC(O)CNCCN (stereo unspecified) | fulfilled |

Does the reported growth for CN(C)CCCN1c2ccccc2Sc2ccc(C(F)(F)F)cc21 fall at or above the 90% mark? not fulfilled

Kindly determine if growth recorded for CCC(OC(=O)CC(C)C)c1ccccc1 (stereo unspecified) is above or exactly 90%. not fulfilled

hey, is growth for this one >= 90%? CN(C)Cc1cccs1 fulfilled

Is growth for COc1ccc2oc(=O)cc(C3c4ccc([nH]4)C(c4cc(=O)oc5ccc(OC)cc45)c4ccc([nH]4)C(c4cc(=O)oc5ccc(OC)cc45)c4ccc([nH]4)C(c4cc(=O)oc5ccc(OC)cc45)c4ccc3[nH]4)c2c1 (stereo unspecified) at or above 90%? not fulfilled

# check: growth of C(=C\c1nc2ccccc2s1)/c1ccc(N2CCOCC2)s1 is greater than or equal to 90% not fulfilled

Please check the record O=C(NCCCl)c1cc(Cl)cc(Cl)c1 and state if its growth is at or above 90%. fulfilled

Dear colleague, could you confirm whether C/C(=N\NC(=S)N1CCCC1)c1ccccn1 has growth at or above 90%? not fulfilled

Answer whether growth of Nc1c(C(=O)NC2CCCCC2)sc2nc3c(cc12)C(=O)CCC3 is greater than or equal to 90%. fulfilled
